molecular target: Potassium voltage-gated channel subfamily KQT member 2 (Rattus norvegicus) (UniProt O88943); assay: KCNQ2 potentiation in CHO cells – cell-based, FluxOR thallium flux, counter-screen for hERG block protector project, confirmation (AID 1942); conditions: FluxOR thallium flux fluorescence, at 10 µM
Sequence (O88943 whole entry, looked up): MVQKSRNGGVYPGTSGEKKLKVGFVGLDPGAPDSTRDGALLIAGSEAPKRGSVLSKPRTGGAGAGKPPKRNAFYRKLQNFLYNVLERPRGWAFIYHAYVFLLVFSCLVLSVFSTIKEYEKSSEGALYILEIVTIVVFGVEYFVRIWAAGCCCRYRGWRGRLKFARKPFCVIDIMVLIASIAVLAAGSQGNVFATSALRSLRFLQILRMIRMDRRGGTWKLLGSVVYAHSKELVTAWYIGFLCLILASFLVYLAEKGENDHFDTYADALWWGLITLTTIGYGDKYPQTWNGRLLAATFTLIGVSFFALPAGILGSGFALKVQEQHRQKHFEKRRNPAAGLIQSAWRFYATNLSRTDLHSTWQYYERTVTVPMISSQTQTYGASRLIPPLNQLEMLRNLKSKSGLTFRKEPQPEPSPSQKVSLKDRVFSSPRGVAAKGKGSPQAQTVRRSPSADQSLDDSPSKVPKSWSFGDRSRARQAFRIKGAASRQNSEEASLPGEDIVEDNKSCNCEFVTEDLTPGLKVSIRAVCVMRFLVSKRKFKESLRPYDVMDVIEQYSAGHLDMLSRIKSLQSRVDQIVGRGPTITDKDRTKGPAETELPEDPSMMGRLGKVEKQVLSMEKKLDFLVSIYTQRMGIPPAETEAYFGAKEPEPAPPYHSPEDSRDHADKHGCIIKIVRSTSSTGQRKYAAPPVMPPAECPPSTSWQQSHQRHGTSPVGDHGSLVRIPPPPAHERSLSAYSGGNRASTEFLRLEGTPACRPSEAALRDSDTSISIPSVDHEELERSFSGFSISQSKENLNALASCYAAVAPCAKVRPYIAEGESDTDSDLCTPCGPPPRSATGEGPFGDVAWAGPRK
Out of some 2,400 compounds screened, about 580 (24%) were called active.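 The calls were made as follows: active = activity change at or above the mean plus 3 SD of buffer wells without dofetilide, per plate; inactive = the rest.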 A selection follows.
Lab note: assign the record to one of yes = active, no = inactive

INSERT INTO assay_data (molecule, qualitativelabel) VALUES
  ('CCN(CC)CCOC(=O)C(c1ccccc1)c1ccccc1', 'no'),
  ('Cc1ccc(S(=O)(=O)N2CCOCC2)cc1NC(=O)CSc1nc2ccccc2c(=O)n1Cc1ccccc1', 'no'),
  ('CCOC(=O)Cn1cc(C=O)c2ccccc21', 'no'),
  ('Cc1ccc(C)c(Cn2c(O)c(N=NC(=S)Nc3ccccc3F)c3ccccc32)c1', 'no'),
  ('O=c1[nH]c(C(Cl)(Cl)Cl)nc2ccc3ccccc3c12', 'yes'),
  ('COC(=O)C1=NN(C(=O)c2cccc(Br)c2)C(O)(c2ccc(Cl)cc2)C1 (stereo not given)', 'yes'),
  ('O=C(Nc1ncc(Cc2ccc(C(F)(F)F)cc2)s1)c1ccc(-c2cccc([N+](=O)[O-])c2)o1', 'no'),
  ('O=c1[nH]c(N2CCN(c3ccccc3)CC2)nc2c1CCCC2', 'no'),
  ('S=c1nc[nH]c2c1sc1nc(-c3ccccc3)c3c(c12)CCCC3', 'no'),
  ('O=C(CSc1ccccc1)N1CCN(S(=O)(=O)c2cccs2)CC1', 'no');

**Query** Hello, I am checking results. What call was entered for COc1ccc(-n2c(SCc3ccccn3)nc3c(c2=O)SCC3)cc1OC ?
**Result** no

**Query** Same again, this time with O=C(CSc1nc(N2CCCCC2)nc(N2CCCCC2)n1)c1ccccc1
**Result** yes

**Query** Same again, this time with C=CCN(c1ccccc1)S(=O)(=O)c1cccc(C(=O)Nc2nnc(SCC)s2)c1
**Result** no

**Query** Same again, this time with CC1CCCC(NC(=S)NC(=O)c2cncc(Br)c2)C1C (stereo not given)
**Result** no

**Query** Same again, this time with S=c1nc[nH]c2c1sc1nc(N3CCOCC3)c3c(c12)CCCC3
**Result** yes
